Just for reference, the supplement of paper PMC10307832 is where these values come from.

Form field: relative viability (one value per entry).
tested on: NCI-H1563; assay: relative viability (nuclei count vs DMSO), 5 days (fraction); higher = more cells survive; settings: first compound 2 µM
# answer = number (no unit)

| Compound | System name | Measurement type | Experimental value |
| --- | --- | --- | --- |
| CN1CCN(CCOc2cc(OC3CCOCC3)c3c(Nc4c(Cl)ccc5c4OCO5)ncnc3c2)CC1 [Saracatinib] + C[C@]1(O)C[C@@H](c2nc(-c3ccc4ccc(-c5ccccc5)nc4c3)c3c(N)nccn32)C1 [Linsitinib] (partner 1 µM) | NCI-H1563 | relative viability | 0.891 |

Provide measured relative viability value, entry: Cc1csc(=NC2CCCCC2)n1/N=C/c1ccc(O)c(O)c1O [MIM1] + Nc1nc2[nH]cc(CCc3ccc(C(=O)N[C@@H](CCC(=O)O)C(=O)O)cc3)c2c(=O)[nH]1 [Pemetrexed] (partner 0.2 µM) 0.651

====

tested on: LC-2-ad; experiment: relative viability (nuclei count vs DMSO), 5 days (fraction); higher = more cells survive; conditions: first compound 2.53 µM
Measured relative viability, listed per entry for reference.

| Compound | Experimental value |
| --- | --- |
| Nc1cccc2c1CN(C1CCC(=O)NC1=O)C2=O (stereo not given) [Lenalidomide] + COc1cccc2cc(-c3nc([C@H]4CC[C@H](C(=O)O)CC4)n4ncnc(N)c34)[nH]c12 [OSI-027] (partner 0.5 µM) | 0.912 |

State relative viability (LC-2-ad) of Nc1cccc2c1CN(C1CCC(=O)NC1=O)C2=O (stereo not given) [Lenalidomide] + Cc1nc(NC(=O)N2CCC[C@H]2C(N)=O)sc1-c1ccnc(C(C)(C)C(F)(F)F)c1 [Alpelisib] (partner 2 µM) . 0.84

Specify relative viability for Nc1cccc2c1CN(C1CCC(=O)NC1=O)C2=O (stereo not given) [Lenalidomide] + Nc1ncn([C@H]2C[C@H](O)[C@@H](CO)O2)c(=O)n1 [Decitabine] (partner 2 µM) , system LC-2-ad. 0.744

Send back LC-2-ad relative viability of Nc1cccc2c1CN(C1CCC(=O)NC1=O)C2=O (stereo not given) [Lenalidomide] + CC1(C)CCC(c2ccc(Cl)cc2)=C(CN2CCN(c3ccc(C(=O)NS(=O)(=O)c4ccc(N[C@H](CCN5CCOCC5)CSc5ccccc5)c(S(=O)(=O)C(F)(F)F)c4)cc3)CC2)C1 [Navitoclax] (partner 0.5 µM) only. 0.478

Fetch value of relative viability on LC-2-ad for Nc1cccc2c1CN(C1CCC(=O)NC1=O)C2=O (stereo not given) [Lenalidomide] + C[C@@H](Oc1cc(-c2cnn(C3CCNCC3)c2)cnc1N)c1c(Cl)ccc(F)c1Cl [Crizotinib] (partner 1 µM) . 0.547

====

tested on: LU99A; test: relative viability (nuclei count vs DMSO), 5 days (fraction); higher = more cells survive; details: first compound 0.02 µM
Measurement type: relative viability

| Molecule | relative viability |
| --- | --- |
| CCNC(=O)c1noc(-c2cc(C(C)C)c(O)cc2O)c1-c1ccc(CN2CCOCC2)cc1 [Luminespib] + Cc1nc(Nc2ncc(C(=O)Nc3c(C)cccc3Cl)s2)cc(N2CCN(CCO)CC2)n1 [Dasatinib] (partner 0.075 µM) | 0.377 |

Tell me relative viability reported for CCNC(=O)c1noc(-c2cc(C(C)C)c(O)cc2O)c1-c1ccc(CN2CCOCC2)cc1 [Luminespib] + CC1(C)CCC(c2ccc(Cl)cc2)=C(CN2CCN(c3ccc(C(=O)NS(=O)(=O)c4ccc(N[C@H](CCN5CCOCC5)CSc5ccccc5)c(S(=O)(=O)C(F)(F)F)c4)cc3)CC2)C1 [Navitoclax] (partner 0.5 µM) 0.496

Give recorded relative viability. CN1CCN(CCOc2cc(OC3CCOCC3)c3c(Nc4c(Cl)ccc5c4OCO5)ncnc3c2)CC1 [Saracatinib] + COc1cccc2cc(-c3nc([C@H]4CC[C@H](C(=O)O)CC4)n4ncnc(N)c34)[nH]c12 [OSI-027] (partner 0.5 µM) 0.317

For CCNC(=O)c1noc(-c2cc(C(C)C)c(O)cc2O)c1-c1ccc(CN2CCOCC2)cc1 [Luminespib] + CC(=O)Nc1cccc(-n2c(=O)n(C3CC3)c(=O)c3c(Nc4ccc(I)cc4F)n(C)c(=O)c(C)c32)c1 [Trametinib] (partner 0.02 µM) , write its relative viability. 0.378
